Compiled from multiple publications: IC50 readings for JNK1α1 (Homo sapiens).

Past entries and their recorded results:
>>> result("O=C(Cn1c(=O)ccc2ccc(OC(F)(F)F)cc21)Nc1scc(Br)c1-c1ncn[nH]1")
"< 100 nM"
>>> result("O=C(c1cccc(O)c1F)c1c[nH]c2ncc(-c3cccs3)cc12")
"≤ 10000 nM"
>>> result("NC(=O)c1ccc(-c2cnc3[nH]cc(C(=O)c4ccccc4F)c3c2)cc1")
"≤ 10000 nM"
>>> result("Cc1cscc1-c1cccc2c1nnn2-c1ccnc(NC2CCN(S(C)(=O)=O)CC2)n1")
"3.6 nM"
>>> result("Cc1nc2c(cnn2-c2csc(C(=O)NC3COC3)c2)cc1Nc1cccc(F)c1Cl")
"200 to 1000 nM"
>>> result("CCC(=O)c1cnc(NC(C)(C)C)nc1N[C@@H]1CC[C@@H](C)[C@H](O)C1")
"100 to 500 nM"
>>> result("N#Cc1csc(NC(=O)Cc2cccc3ncccc23)c1-c1nnc[nH]1")
"< 100 nM"
>>> result("CCCNc1nccc(-c2c(-c3ccc(F)cc3)nc3n2[C@H](Cn2ccc4ccccc42)CC3)n1")
"636 nM"
>>> result("N#Cc1csc(NC(=O)Cn2c(=O)ccc3cc(C(F)(F)F)ccc32)c1-n1ccnn1")
"100 to 10000 nM"
>>> result("N#Cc1csc(NC(=O)Cc2cccc3ncccc23)c1-c1cnccn1")
"< 100 nM"

IC50 of O=C(c1ccc2cc[nH]c2c1)c1c[nH]c2ncc(OC3CCCC3)cc12 on JNK1α1 (Homo sapiens)?
≤ 10000 nM

IC50 of [2H]C([2H])([2H])N1CC[C@H](NC(=O)c2cc(-n3ncc4cc(Nc5ccccc5Cl)c(F)cc43)cs2)C1 on JNK1α1 (Homo sapiens)?
200 to 1000 nM

IC50 of Cn1cnc(-c2c(Br)csc2NC(=O)CN2C(=O)CCc3ncccc32)n1 on JNK1α1 (Homo sapiens)?
< 100 nM

###

pIC50: −log10 of the molar value.
Compiled from multiple publications: pIC50 readings for JNK1α1 (Homo sapiens).

Past entries and their recorded results:
>>> result("O=C(Cc1cccc2cnccc12)Nc1scnc1-c1ncn[nH]1")
"5.00 to 7.00"
>>> result("Cc1csc(-c2sccc2NC(=O)Cc2cccc3cnccc23)n1")
"5.00 to 7.00"
>>> result("C[C@@H]1CC[C@@H](Nc2cc(NC3CCC(O)C3)ncc2C(N)=O)C[C@H]1O (some centres unmarked)")
"6.00 to 6.30"

pIC50 of Cn1cnc(-c2c(Cl)csc2NC(=O)Cn2c(=O)ccn3nc(C(F)(F)F)cc23)n1 on JNK1α1 (Homo sapiens)?
> 7.00

pIC50 of COC(=O)Nc1ccc(F)c(C(=O)c2c[nH]c3ncc(-c4cccnc4)cc23)c1F on JNK1α1 (Homo sapiens)?
≥ 5.00

###

Compiled from multiple publications: IC50 readings for JNK1α1 (Homo sapiens).

>>> result("O=C(c1ccc(OCc2ccc(Cl)cc2)c(F)c1)c1c[nH]c2ncccc12")
"≤ 10 µM"
>>> result("O=C(Cn1c(=O)ccc2cc(C(F)(F)F)ccc21)Nc1scc(Br)c1-n1nccn1")
"< 0.1 µM"
>>> result("CS(=O)(=O)Nc1ccc(F)c(C(=O)c2c[nH]c3ncc(-c4cccnc4)cc23)c1F")
"≤ 10 µM"
>>> result("N#Cc1csc(NC(=O)Cn2c(=O)ccc3cc(C(F)(F)F)ccc32)c1-c1cscn1")
"< 0.1 µM"
>>> result("N#Cc1csc(NC(=O)Cn2c(=O)ccc3cc(C(F)(F)F)ccc32)c1-c1nccs1")
"< 0.1 µM"
>>> result("N#Cc1csc(NC(=O)Cc2cccc3cnccc23)c1-c1ncn[nH]1")
"< 0.1 µM"
>>> result("Cc1noc(C)c1-c1cccc2c1nnn2-c1ccnc(N[C@H]2CC[C@H](C(=O)N3CCC(O)CC3)CC2)n1")
"0.0432 µM"
>>> result("O=C(Cc1cccc2ncccc12)Nc1ccsc1-c1nnc[nH]1")
"0.1 to 10 µM"

IC50 of CC(C)(C)Nc1ncc(C(N)=O)c(NC2CCCNC2)n1 (stereo not drawn) on JNK1α1 (Homo sapiens)?
< 0.1 µM

IC50 of c1cc2ccc(Nc3ccc(N4CCCCC4)cc3)nc2[nH]1 on JNK1α1 (Homo sapiens)?
≤ 10 µM

IC50 of COc1ccc(C(=O)c2c[nH]c3ncc(-c4cccc(/C=C/C(=O)O)c4)cc23)c(Cl)c1 on JNK1α1 (Homo sapiens)?
≤ 10 µM

IC50 of O=C(Cc1cc2ncccc2cc1F)Nc1scc(Br)c1-c1ncn[nH]1 on JNK1α1 (Homo sapiens)?
< 0.1 µM

IC50 of C[C@@H]1CC[C@@H](Nc2nc(O[C@H]3CC[C@H](O)CC3)ncc2C(N)=O)C[C@H]1O on JNK1α1 (Homo sapiens)?
0.1 to 0.5 µM

IC50 of Fc1ccc(-c2nc3n(c2-c2ccnc(NC4CCC4)n2)[C@H](CNc2ccccn2)CC3)cc1 on JNK1α1 (Homo sapiens)?
0.524 µM

IC50 of CC(C)NC(=O)c1cc(-n2ncc3cc(Oc4ccccc4Cl)ncc32)cs1 on JNK1α1 (Homo sapiens)?
> 1 µM

IC50 of O=C(CN1C(=O)CCc2cnccc21)Nc1scc(Br)c1-c1ncn[nH]1 on JNK1α1 (Homo sapiens)?
< 0.1 µM

IC50 of CS(=O)(=O)N[C@H]1CC[C@H](Nc2ncc3ccc(=O)n(CCCO)c3n2)CC1 on JNK1α1 (Homo sapiens)?
0.282 µM

IC50 of N#Cc1ccc2c(ccc(=O)n2CC(=O)Nc2scc(Cl)c2-c2nc[nH]n2)c1 on JNK1α1 (Homo sapiens)?
< 0.1 µM

IC50 of Cn1cccc1-c1nc(-c2ccnc3[nH]ccc23)no1 on JNK1α1 (Homo sapiens)?
≤ 10 µM

###

Compiled from multiple publications: pIC50 readings for JNK1α1 (Homo sapiens, UniProt P45983).
pIC50: −log10 of the molar value.

>>> result("CCCS(=O)(=O)Nc1ccc(F)c(C(=O)c2c[nH]c3ncc(-c4ccc(C(=O)N(C)C)c(C)c4)cc23)c1F")
"≥ 5.00"
>>> result("COc1nc(-c2sccc2NC(=O)Cc2cccc3cnccc23)cs1")
"5.00 to 7.00"
>>> result("COc1ccc(CC(=O)Nc2ccsc2N2CCOC2=O)cc1")
"< 4.30"
>>> result("N#Cc1csc(NC(=O)CN2C(=O)CCc3ncccc32)c1-c1nc[nH]n1")
"> 7.00"

pIC50 of Cc1sc(C(=O)NC2COC2)cc1-n1ncc2cc(Nc3ccccc3Cl)cnc21 on JNK1α1 (Homo sapiens, UniProt P45983)?
6.00 to 6.70

pIC50 of O=C(Nc1cccc(F)c1)Nc1cccc(C(=O)c2c[nH]c3ncc(-c4cccnc4)cc23)c1 on JNK1α1 (Homo sapiens, UniProt P45983)?
≥ 5.00

pIC50 of Cc1ccncc1NC(=O)c1ccnc2[nH]c(-c3cccc(F)c3)nc12 on JNK1α1 (Homo sapiens, UniProt P45983)?
4.98

pIC50 of O=C(c1c[nH]c2ncc(-c3ccccc3)cc12)c1cccc2c1ccn2C(=O)NCc1ccccc1 on JNK1α1 (Homo sapiens, UniProt P45983)?
≥ 5.00

pIC50 of COc1cccc(Cl)c1Nc1cc2cnn(-c3csc(C(=O)NC4COC4)c3)c2nc1C on JNK1α1 (Homo sapiens, UniProt P45983)?
< 6.00

pIC50 of N#Cc1ccc2c(ccc(=O)n2CC(=O)Nc2scc(Br)c2-c2ncn[nH]2)c1 on JNK1α1 (Homo sapiens, UniProt P45983)?
> 7.00

###

pIC50: −log10 of the molar value.
Compiled from multiple publications: pIC50 readings for JNK1α1 (Homo sapiens).

pIC50 of CC(=O)Nc1cccc(-c2cnc3[nH]cc(Cc4ccccc4F)c3c2)c1 on JNK1α1 (Homo sapiens)?
≥ 5.00

pIC50 of CC(C)(C)Nc1ncc(C(N)=O)c(N2CC(C(C)(C)O)C2)n1 on JNK1α1 (Homo sapiens)?
6.30 to 7.00

pIC50 of [2H]C([2H])([2H])N1CC[C@H](NC(=O)c2cc(-n3ncc4cc(Nc5ccccc5Cl)ccc43)cs2)C1 on JNK1α1 (Homo sapiens)?
6.00 to 6.70

pIC50 of NC(=O)c1ccc(-c2cnc3[nH]cc(Cc4ccccc4F)c3c2)cc1 on JNK1α1 (Homo sapiens)?
≥ 5.00

pIC50 of CCCC(=O)Nc1ccc(F)c(C(=O)c2c[nH]c3ncc(-c4cccnc4)cc23)c1F on JNK1α1 (Homo sapiens)?
≥ 5.00

pIC50 of Fc1ccc(-c2nc3n(c2-c2ccnc(NC4CCC4)n2)[C@H](/C=C/c2cccs2)CC3)cc1 on JNK1α1 (Homo sapiens)?
6.61

pIC50 of Cc1n[nH]c(-c2c(C)csc2NC(=O)Cc2cccc3nccnc23)n1 on JNK1α1 (Homo sapiens)?
5.00 to 7.00

pIC50 of Cc1c(NS(C)(=O)=O)cccc1C(=O)c1c[nH]c2ncc(-c3cccnc3)cc12 on JNK1α1 (Homo sapiens)?
≥ 5.00
